Entry source: the supplement of paper PMC3545927

- TESTED_TARGET: furin, P09958;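 further: purified furin at 1:10 enzyme:substrate in 50 mM HEPES pH 7.5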
- Sequence (P09958 whole entry): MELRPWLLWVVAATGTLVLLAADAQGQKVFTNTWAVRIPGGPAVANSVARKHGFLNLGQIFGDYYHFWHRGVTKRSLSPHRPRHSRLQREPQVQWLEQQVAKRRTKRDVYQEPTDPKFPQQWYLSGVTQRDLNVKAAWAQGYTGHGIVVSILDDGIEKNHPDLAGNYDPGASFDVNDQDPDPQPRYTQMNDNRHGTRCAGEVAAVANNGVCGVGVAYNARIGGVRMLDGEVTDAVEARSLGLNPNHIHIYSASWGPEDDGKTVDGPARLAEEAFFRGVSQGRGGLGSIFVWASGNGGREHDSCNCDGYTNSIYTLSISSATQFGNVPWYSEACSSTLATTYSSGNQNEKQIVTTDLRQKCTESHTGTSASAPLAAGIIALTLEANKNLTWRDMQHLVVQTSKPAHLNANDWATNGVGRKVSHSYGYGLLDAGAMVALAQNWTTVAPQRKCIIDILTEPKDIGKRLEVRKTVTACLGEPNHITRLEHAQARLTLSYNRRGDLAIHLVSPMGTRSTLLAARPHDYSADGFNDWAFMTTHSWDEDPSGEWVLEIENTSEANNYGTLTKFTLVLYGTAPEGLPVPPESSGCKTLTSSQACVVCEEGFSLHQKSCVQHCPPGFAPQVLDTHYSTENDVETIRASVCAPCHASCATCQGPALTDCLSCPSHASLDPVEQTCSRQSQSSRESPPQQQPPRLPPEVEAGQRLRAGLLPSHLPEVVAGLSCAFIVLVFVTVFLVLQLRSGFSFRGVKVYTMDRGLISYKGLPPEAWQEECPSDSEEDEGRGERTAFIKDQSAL
- PROTOCOL_DETAILS: furin cleavage Z-score vs untreated control; higher = more cleavage, active = 3.5 or more, inactive = 1 or less, 8 variable residues between constant flanks
- COND: 7.5 min
The other results are listed elsewhere or left out. No count for the full screen is at hand.
Field: class. Source value: furin cleavage Z-score. Ranges: low interval (below 0.1), middle interval (0.1 to below 3), high interval (3 or more)

| POLYMER_SEQUENCE | GROUP_LABEL |
| --- | --- |
| CAAYALDTEVAGNASASA [HC564] | low interval |
| CARAKRRWAPAGNASASA [FS-2638] | middle interval |
| CARPMRPVGHAGNASASA [FS-2739] | low interval |
| CAGRSRASRGAGNASASA [FS-1591] | middle interval |
| CAGTQRLTRAAGNASASA [FS-438] | high interval |
| CARPVRDCDDAGNASASA [FS-3028] | middle interval |
| CARAKREEKKAGNASASA [FS-2634] | high interval |
| CARAKRAFLPAGNASASA [FS-1991] | high interval |
| CARAKRTTKRAGNASASA [FS-3241] | high interval |
| CATTGCSGSWAGNASASA [HC1876] | low interval |
| CALMPQLPGIAGNASASA [HC1160] | middle interval |
| CAYEMEECSQAGNASASA [HC1789] | middle interval |
| CARAYRSSMRAGNASASA [FS-2894] | low interval |
| CARPARSVGSAGNASASA [FS-2736] | high interval |
| CAAQKRSVGSAGNASASA [FS-2626] | middle interval |
